// provenance: PubChem BioAssay (NCI)

- Test system: SNB-19 CNS
- test_protocol: NCI tumour cell line growth inhibition, 48 h
Measured TGI by item
value_kind: TGI

molecule=Cc1c(S(=O)(=O)c2ccccc2)c(N)n(Cc2ccccc2)c1C result="> 100 µM"
molecule="Nc1nc(Cl)cc(NCC2(CO)CC(CCc3ccccc3)C2)n1 (centres undefined)" result="> 100 µM"
molecule="COC1O[C@H]2CCN(C(=O)OCc3ccccc3)[C@H]2[C@H]1OCc1ccccc1 (some centres undefined)" result="> 100 µM"
molecule="CC(=O)OC1=C2CC3(C)OC(=O)CC(C)(C)C3=CC=C2C=C(C(C)C)C1=O (centres undefined)" result="3.28 µM"
molecule=C[N+](C)(C)CC(=O)N/N=c1\cc(C(=O)Nc2ccc(N=O)cc2C#N)oc2cc(O)ccc12 result="> 100 µM"
molecule="Cc1cccc(N2C(=O)C3ON(C(C(N)=O)c4ccccc4)C(c4c5ccccc5c(Cl)c5ccccc45)C3C2=O)c1C (centres undefined)" result="18.4 µM"
molecule=COc1cc2c(c3c1C=CCO3)C(=O)c1ccccc1C2=O result="> 100 µM"
molecule=C[C@@H]1CC[C@@H]2[C@@H]1[C@H](OC(=O)/C=C/c1ccccc1)[C@]1(c3ccccc3)C[C@@H](OC(=O)CO)[C@@]2(C)O1 result="55.9 µM"
molecule=CSc1nc(SC)c2c(CN=[N+]=[N-])c(Br)n(Cc3ccccc3)c2n1 result="> 100 µM"
